# EXPERIMENT_NOTES: Phase 1 single ascending dose 2-hour IV infusion PK in healthy subjects (Cohorts 1-3)
# Type: in vivo, human
# RECORDED_CONDITIONS: human, plasma; 10 mg/kg IV; read-out: t½ (arithmetic mean) (converted)
Structures can show the parent of a compound that is named as a salt.
READOUT_NAME: half-life (h)
Please reply with the bare figure in h and do not write the unit itself.

Given the compound OC[C@H]1NC[C@H](O)[C@@H](O)[C@H]1O [migalastat HCl] , what is its reported half-life? 10

====

# EXPERIMENT_NOTES: Phase 1 single ascending dose 2-hour IV infusion PK in healthy subjects (Cohorts 1-3)
# Type: in vivo, human
# RECORDED_CONDITIONS: human; 1.0 mg/kg IV, 2-hour infusion; plasma; read-out: Cmax (geometric mean)
Structures can show the parent of a compound that is named as a salt.
READOUT_NAME: Cmax (ng/mL)
Give the value, in units of ng/mL, as a plain number.

// returns reported Cmax for input OC[C@H]1NC[C@H](O)[C@@H](O)[C@H]1O [migalastat HCl] 1760

Sourced from patent US10155027B2
